# System Under Test: human ASIC1a (hASIC1a) (Homo sapiens, UniProt P78348)
# Construct: expressed in transfected cells; host or cells: CHO cells
# Sequence (P78348 whole entry): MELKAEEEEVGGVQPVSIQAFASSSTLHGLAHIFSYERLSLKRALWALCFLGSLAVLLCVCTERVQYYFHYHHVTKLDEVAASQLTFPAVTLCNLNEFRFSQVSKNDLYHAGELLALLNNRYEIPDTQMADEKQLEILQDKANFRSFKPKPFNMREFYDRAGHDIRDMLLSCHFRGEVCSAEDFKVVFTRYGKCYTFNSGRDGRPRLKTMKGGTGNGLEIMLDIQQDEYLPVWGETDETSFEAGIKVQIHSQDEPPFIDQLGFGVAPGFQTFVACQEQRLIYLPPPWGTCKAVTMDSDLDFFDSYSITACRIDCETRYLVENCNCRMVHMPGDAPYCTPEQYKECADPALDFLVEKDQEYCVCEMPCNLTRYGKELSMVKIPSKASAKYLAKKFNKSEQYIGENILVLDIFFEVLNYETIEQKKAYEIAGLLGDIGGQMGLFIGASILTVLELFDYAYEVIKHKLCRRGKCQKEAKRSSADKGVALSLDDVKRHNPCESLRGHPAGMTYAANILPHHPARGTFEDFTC
# Assay: whole-cell patch clamp in CHO cells, inhibition of human ASIC1a
# Format: cell-based
# Measurement Context: synthetic mambalgin-1, whole-cell recording at −70 mV, pH drop from 7.4 to 6.0 for 4 s, toxin applied 30 s before at pH 7.4 and during acid, room temperature, Hill fit, mean ± SE, n = 3–14
Bridge positions count the residues as written; N and C are the ends. Ends that are not written are not given here.
Property Measured: IC50 (µM)

• LKCYQHGKVVTCHRDMKFCYHNTGMPFRNLKLILQGCSSSCSETENNKCCSTDRCNK-NH2 (disulfide 3-19, 12-37, 41-49, 50-55) [mambalgin-1] = 0.197
